- EXPERIMENTAL SYSTEM: T1, human 5T4-His protein (human, UniProt Q13641 32-355)
- T1 construct: also called recombinant 5T4 protein (human 5T4-his tag); human 5T4 protein; not shown: His tag
- T1 sequence (looked up): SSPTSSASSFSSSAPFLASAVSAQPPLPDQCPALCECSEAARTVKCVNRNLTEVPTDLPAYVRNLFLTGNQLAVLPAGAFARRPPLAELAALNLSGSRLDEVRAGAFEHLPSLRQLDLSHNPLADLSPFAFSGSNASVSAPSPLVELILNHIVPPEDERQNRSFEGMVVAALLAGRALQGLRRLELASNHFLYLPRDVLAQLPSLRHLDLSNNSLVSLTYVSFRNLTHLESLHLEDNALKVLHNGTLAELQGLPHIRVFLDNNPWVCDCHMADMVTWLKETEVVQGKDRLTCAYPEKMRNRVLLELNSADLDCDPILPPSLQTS
- RUN DESCRIPTION: ELISA, coated 5T4-His
ENDPOINT: log10 EC50 (log10 of the value in µg/mL)

INSERT INTO measurements (binder, meas_value) VALUES
  ('Hu14G12-26 (antibody, V domains shown, humanized) VH: QVQLVQSGAEVKKPGSSVKVSCKASGYAFSSSWMNWVRQAPGQGLEWMGRIYREDGHTNYNGKFKGRVTITADKSTTTAYMELSSLRSEDTAVYYCANGGAMDYWGQGTLVTVSS VL: DIVMTQSPDSLAVSLGERATINCRASQDISNYLNWYQQKPGQPPKLLIYYTSRLHSGVPDRFSGSGSGTDYTLTISSLQAEDIAVYFCQQDNTLPWTFGGGTKVEIK', -2.16),
  ('Hu14G12-11 (antibody, V domains shown, humanized) VH: EVQLVQSGAEVKKPGATVKISCKVSGYAFSSSWMNWVKQAPGKGLEWIGRIYREDGHTNYNGKFKGRATITADTSTTTAYMELSSLRSEDTAVYFCANGGAMDYWGQGTLVTVSS VL: DIQMTQSPSSLSASVGDRVTISCRASQDISNYLNWYQQKPGKAVKLLIYYTSRLHSGVPSRFSGSGSGTDFTFTISSLQPEDIATYFCQQDNTLPWTFGGGTKLEIK', -1.82),
  ('Hu14G12-42 (antibody, V domains shown, humanized) VH: QVQLVQSGAEVKKPGASVKVSCKASGYAFSSSWMNWVRQAPGQRLEWMGRIYREDGHTNYNGKFKGRVTITADKSATTAYMELSSLRSEDTAVYYCANGGAMDYWGQGTLVTVSS VL: DIQMTQSPSTLSASVGDRVTITCRASQDISNYLNWYQQKPGKAPKLLIYYTSRLHSGVPSRFSGSGSGTEYTLTISSLQPDDIATYFCQQDNTLPWTFGGGTKVEIK', -2.11),
  ('Hu14G12-1 (antibody, V domains shown, humanized) VH: EVQLVQSGAEVKKPGATVKISCKVSGYAFSSSWMNWVQQAPGKGLEWMGRIYREDGHTNYNGKFKGRVTITADTSTDTAYMELSSLRSEDTAVYYCATGGAMDYWGQGTLVTVSS VL: DIQMTQSPSSLSASVGDRVTITCRASQDISNYLNWYQQKPGKAPKLLIYYTSRLHSGVPSRFSGSGSGTDFTFTISSLQPEDIATYYCQQDNTLPWTFGGGTKLEIK', -1.68),
  ('Hu14G12-23 (antibody, V domains shown, humanized) VH: QVQLVQSGAEVKKPGSSVKVSCKASGYAFSSSWMNWVRQAPGQGLEWMGRIYREDGHTNYNGKFKGRVTITADKSTTTAYMELSSLRSEDTAVYYCANGGAMDYWGQGTLVTVSS VL: DIQMTQSPSSLSASVGDRVTITCRASQDISNYLNWYQQKPGKAPKLLIYYTSRLHSGVPSRFSGSGSGTDYTFTISSLQPEDIATYFCQQDNTLPWTFGGGTKVEIK', -2.15),
  ('Hu14G12-9 (antibody, V domains shown, humanized) VH: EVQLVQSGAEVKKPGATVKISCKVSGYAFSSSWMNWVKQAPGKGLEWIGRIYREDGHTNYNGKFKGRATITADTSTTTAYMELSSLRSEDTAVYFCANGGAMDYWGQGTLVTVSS VL: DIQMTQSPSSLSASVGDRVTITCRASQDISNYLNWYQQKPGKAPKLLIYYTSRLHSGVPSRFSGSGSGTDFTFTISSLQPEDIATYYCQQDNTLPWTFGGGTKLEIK', -1.92),
  ('Hu14G12-13 (antibody, V domains shown, humanized) VH: EVQLVQSGAEVKKPGATVKISCKASGYAFSSSWMNWVKQAPGKGLEWIGRIYREDGHTNYNGKFKGRATITADTSTTTAYMELSSLRSEDSAVYFCANGGAMDYWGQGTLVTVSS VL: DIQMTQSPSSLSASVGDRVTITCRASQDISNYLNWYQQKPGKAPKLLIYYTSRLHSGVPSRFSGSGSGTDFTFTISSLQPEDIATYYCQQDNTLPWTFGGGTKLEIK', -1.74),
  ('Hu14G12-18 (antibody, V domains shown, humanized) VH: QVQLVQSGAEVKKPGSSVKVSCKASGGTFSSSWMNWVKQAPGQGLEWIGRIYREDGHTNYNGKFKGKATLTADKSTSTAYMELSSLRSEDTAVYFCANGGAMDYWGQGTTVTVSS VL: DIQMTQSPSSLSASVGDRVTITCRASQDISNYLNWYQQKPGKVPKLLIYYTSRLHSGVPSRFSGSGSGTDYTLTISSLQPEDVATYFCQQDNTLPWTFGGGTKLEIK', -0.51),
  ('Hu14G12-34 (antibody, V domains shown, humanized) VH: QVQLVQSGAEVKKPGASVKVSCKASGYAFSSSWMNWVRQAPGQGLEWMGRIYREDGHTNYNGKFKGRVTMTADKSTTTAYMELSSLRSEDTAVYYCANGGAMDYWGQGTLVTVSS VL: DIQMTQSPSSLSASVGDRVTITCRASQDISNYLNWYQQKPGKAPKLLIYYTSRLHSGVPSRFSGSGSGTDYTLTISSLQPEDIATYFCQQDNTLPWTFGGGTKVEIK', -2.06),
  ('Hu14G12-33 (antibody, V domains shown, humanized) VH: QVQLVQSGAEVKKPGASVKVSCKASGYAFSSSWMNWVRQAPGQGLEWMGRIYREDGHTNYNGKFKGRVTMTADKSTTTAYMELSSLRSEDTAVYYCANGGAMDYWGQGTLVTVSS VL: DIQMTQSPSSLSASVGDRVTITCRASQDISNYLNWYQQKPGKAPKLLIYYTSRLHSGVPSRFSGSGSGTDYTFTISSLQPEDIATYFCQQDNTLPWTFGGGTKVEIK', -1.96);
